Study Target: RSV F protein of subtype B (18537) on recombinant mKate-RSV (Respiratory syncytial virus subtype B …, UniProt P13843 26-574)
Method Description: cell-based or functional assay
Quantity Kind: Neut IC50 (µg/ml) subtype B

IN: # lookup: Neut IC50 (µg/ml) subtype B of ADI-14540 (antibody, V domains shown) VH: QVQLVESGGGVVQPGRSLRLSCAASGFTFTDYAMHWVRQAPGKGLQWVALISYNGRIQYYADSVKGRFTISRDDSKNTLYLQMNSLRAGDTAVYYCARDGDLVAVPAAIGFDSWGQGTLVTVSS VL: DIQVTQSPDSLAVSLGERATINCKSSQSVLYTSNNKNYLAWYQQKSRQPPKLLIYWASTRESGVPERFSGSGSGTDFTLTISSLQAEDVAVYYCQQYSSPPYTFGQGTKVEIK
OUT: > 10 µg/mL

IN: Name the recorded Neut IC50 (µg/ml) subtype B for ADI-14560 (antibody, V domains shown, IgG; also called Antibody Number 120) VH: QVQLVQSGPELKKPGESLKISCKASGYSFTSFWIAWVRQMPGKGLEFLGIIYPGDADTRYSPSFQGQVTISADKSINTAYLQWNNLKASDTAMYYCARQTTMTPDAFDLWGQGTTVTVSS VL: EIVLTQSPATLSLSPGERATISCRASQSVSSYLAWYQQKPGQAPRLLIYEASDRATGTPARFSGSGSGTDFTLTISSLEPEDFAVYYCQQRSNWGVGTFGQGTKVEIK .
OUT: > 10 µg/mL

IN: Return reported Neut IC50 (µg/ml) subtype B; argument: ADI-14558 (antibody, V domains shown) VH: QVQLVESGGGLIQPGASLRLSCGAYGFSFSSSAMSWVRQAPGKGLEWVSAISDNGGSTYYADSVQGRFTISRDNSKNTLYLQLNRLRAEDTAIYYCAKAYCSDSCHGGYFDYWGQGTLVTVSS VL: EIVLTQSPATLSLSPGDRATLSCRASQSVSSSFAWYQQKPGQAPRLLIYAVSNRATGIPARFSGSGSGTDFTLTISTLEPEDFAVYYCQQRSTWPLTFGPGTKVEIK
OUT: > 10 µg/mL

IN: Fill blank: measured Neut IC50 (µg/ml) subtype B of the binder ADI-14532 (antibody, V domains shown, IgG; also called Antibody Number 92) VH: EVQLVESGGGLVKPGGSLRLSCAASGFIFRNAWMSWVRQAPGKGLEWVGRIKRTSEGGSVDYATPVQGRFSISRDDSRKTLYLQMNSLETDDTAVYYCSTGPPYSYFDSSGYSVVDYWGLGTLVTVSS VL: SYELTQPPSASGTPGQRVTISCSASSSNIGDNYFYWYQQLPGKAPTLLMYGSDQRSSGVPDRFSGSQSGTSASLAISGLRSEDEADYYCAAWDDSLSGPVFGGGTQLTVL is ____.
OUT: 0.208 µg/mL

IN: For ADI-14531 (antibody, V domains shown, IgG; also called Antibody Number 91) VH: QVQLVQSGAEVKKPGSSVKVSCKASGVILTSVAVSWVRQAPGKGFEWMGGILPGFNKVRHAQDFENRATHTADASTNTVYMELSGLKSEDTAVYYCAIIDPQDCTRASCFWVNWLAPWGQGTLVTVSS VL: ETTLTQSPGTLTLSPGERATLSCRASQSVPSRNLAWYQQKPGQAPRLIIYAASNRATDIPDRFSGSGSGTDFTLTISRLEPQDFAVYYCQQYETSPITFGQGTKVDIK , what is its reported Neut IC50 (µg/ml) subtype B?
OUT: > 10 µg/mL
